Test system: Heliothis virescens (Tobacco Budworm)
Assay Notes: Activity against Heliothis virescens, eggs on artificial diet (Example B2)
Type: in vivo
Condition Summary: 96 h, eggs 0-24 h old, incubation 4 days
Could you please report measured pest or weed control at 400 ppm for the items listed next?

Consider the worked cases shown below.
{"Compound": "CCC1(NC(=O)c2cc(C#N)cc(C)c2NC(=O)c2cc(OCC(F)(F)F)nn2-c2ncccc2Cl)CS(=O)(=O)C1 [T13.1.113]", "Subject Of Test": "Heliothis virescens (Tobacco Budworm)", "Experimental Readout": "pest or weed control at 400 ppm", "Result": "> 80%"}
{"Compound": "Cc1cc(C#N)cc(C(=O)NC2CS(=O)(=O)C2)c1NC(=O)c1cc(Br)nn1-c1ncccc1Cl [T13.1.96]", "Subject Of Test": "Heliothis virescens (Tobacco Budworm)", "Experimental Readout": "pest or weed control at 400 ppm", "Result": "> 80%"}

Let us move to another entry and its pest or weed control at 400 ppm.
// lookup pest or weed control at 400 ppm for Cc1cc(Cl)cc(C(=O)NC2C(C)(C)S(=O)(=O)C2(C)C)c1NC(=O)c1cc(C(F)(F)F)nn1-c1ncccc1Cl [T16.1.1]
> 80%
